biological target: Genome polyprotein (Dengue virus type 2 (strain 16681-PDK53)); test: flavivirus cap methylation enzyme inhibition – biochemical, confirmation dose response, primary screen (AID 588689); conditions: Dengue-2 NS5 methyltransferase capping enzyme assay, at 25 µM, hits give high values
Among all 340,000 compounds or so, about 1,000 (0.29%) were called active. Only a sample is shown. Results with a measured potency or affinity are listed apart.
Each entry below carries its recorded inhibition.
Unit % implied. Number only.

For orientation, consider the following solved cases.
{"compound_structure_string": "CCOC(=O)c1cc(CC)sc1/N=C/C1C(=O)CC(C)(C)CC1=O", "experimental_target": "Genome polyprotein (Dengue virus type 2 (strain 16681-PDK53))", "inhibition, %": -17.9}
{"compound_structure_string": "C[C@@H]1CN([C@@H](C)CO)S(=O)(=O)c2ccc(Br)cc2O[C@H]1CN(C)C(=O)c1ccncc1", "experimental_target": "Genome polyprotein (Dengue virus type 2 (strain 16681-PDK53))", "inhibition, %": -4.96}
{"compound_structure_string": "O=C(OCCCOC(=O)c1cc[n+]([O-])cc1)c1cc[n+]([O-])cc1", "experimental_target": "Genome polyprotein (Dengue virus type 2 (strain 16681-PDK53))", "inhibition, %": -7.73}
{"compound_structure_string": "C/[N+]([O-])=C\\C1C(=O)CC(C)(C)CC1=O", "experimental_target": "Genome polyprotein (Dengue virus type 2 (strain 16681-PDK53))", "inhibition, %": -2.92}

Write down measured inhibition (Genome polyprotein (Dengue virus type 2 (strain 16681-PDK53))) for this compound. CC1(C)CC(=O)C(C(c2cccc([N+](=O)[O-])c2)C2C(=O)CC(C)(C)CC2=O)C(=O)C1
0

====

biological target: Genome polyprotein (Dengue virus type 2 (strain 16681-PDK53)) (UniProt P29991); assay: flavivirus cap methylation enzyme inhibition – biochemical, confirmation dose response, primary screen (AID 588689); details: Dengue-2 NS5 methyltransferase capping enzyme assay, at 25 µM, hits give high values
About 1,000 (0.29%) of roughly 340,000 compounds were called active. Not all results are given here. Potency and affinity values are given separately.
measured_endpoint: inhibition (%)
# value in %; strip the unit string

Look over these answered cases.
{"compound_structure_string": "CCCn1c(SCC(=O)c2[nH]c(C)c(C(C)=O)c2C)n[nH]c1=O", "experimental_target": "Genome polyprotein (Dengue virus type 2 (strain 16681-PDK53)) (UniProt P29991)", "measured_endpoint": "inhibition", "quantitative_readout": -15.1}
{"compound_structure_string": "O=C(NCc1nnnn1-c1ccc(F)cc1)c1cc2ccccc2o1", "experimental_target": "Genome polyprotein (Dengue virus type 2 (strain 16681-PDK53)) (UniProt P29991)", "measured_endpoint": "inhibition", "quantitative_readout": 9.89}
{"compound_structure_string": "COc1ccccc1NS(=O)(=O)c1ccc(N/N=C/c2c(C)nn(-c3ccccc3)c2N2CCCC2)c([N+](=O)[O-])c1", "experimental_target": "Genome polyprotein (Dengue virus type 2 (strain 16681-PDK53)) (UniProt P29991)", "measured_endpoint": "inhibition", "quantitative_readout": 0.96}
{"compound_structure_string": "N#CC1=C(N)C2=CCCC[C@H]2[C@H](c2cccc(F)c2)C1(C#N)C#N", "experimental_target": "Genome polyprotein (Dengue virus type 2 (strain 16681-PDK53)) (UniProt P29991)", "measured_endpoint": "inhibition", "quantitative_readout": -4.34}

We now examine a further molecule.
Let me know recorded inhibition for Cc1ccc(S(=O)(=O)Nc2ccc3ncccc3c2[N+](=O)[O-])cc1 , thanks.
-1.93
